Target: T1, human CD71 extracellular domain (human, UniProt P02786 89-760, biotinylated)
T1 construct: also called hCD71; CD71-ECD
T1 sequence (P02786 89-760): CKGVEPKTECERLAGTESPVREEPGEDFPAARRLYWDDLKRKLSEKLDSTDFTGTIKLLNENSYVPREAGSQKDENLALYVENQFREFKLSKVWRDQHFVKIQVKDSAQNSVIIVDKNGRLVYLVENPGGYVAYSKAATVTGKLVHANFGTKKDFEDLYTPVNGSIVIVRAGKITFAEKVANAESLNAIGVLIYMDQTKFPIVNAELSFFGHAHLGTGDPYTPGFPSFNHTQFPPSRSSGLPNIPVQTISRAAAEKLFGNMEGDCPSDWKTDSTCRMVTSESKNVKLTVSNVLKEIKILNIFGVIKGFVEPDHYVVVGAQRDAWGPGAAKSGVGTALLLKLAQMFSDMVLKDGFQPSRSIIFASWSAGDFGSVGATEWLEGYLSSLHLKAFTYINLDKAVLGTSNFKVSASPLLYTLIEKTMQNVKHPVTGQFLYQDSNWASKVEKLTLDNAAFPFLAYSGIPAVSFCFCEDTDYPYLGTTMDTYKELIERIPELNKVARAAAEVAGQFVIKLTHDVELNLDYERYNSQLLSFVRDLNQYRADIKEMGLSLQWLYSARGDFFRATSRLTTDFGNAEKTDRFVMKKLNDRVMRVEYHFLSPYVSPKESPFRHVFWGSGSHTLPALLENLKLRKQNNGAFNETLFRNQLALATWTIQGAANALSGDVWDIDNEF
Assay: primary ELISA; also: test concentration or dose not given here
Catalogue of RLU readings, one per entry.
Write the answer as a number in RLU, unit excluded.

CD71-binding FN3 domain of SEQ ID NO: 510 (designed binder) MLPAPKNLVVSRVTEDSARLSWTAPDAAFDSFFIAYGESPESGEAIVLTVPGSERSYDLTGLKPGTEYLVWIAGVKGGYYSDPLSAIFTT: 3.39e+06
CD71-binding FN3 domain of SEQ ID NO: 481 (designed binder) MLPAPKNLVVSRVTEDSARLSWTAPDAAFDSFFIGYLEPQPPGEAITLYVPGSERSYDMTGLKPGTEYNVTIQGVKGGFPSLPLQAHFTT: 3.71e+06
CD71-binding FN3 domain of SEQ ID NO: 463 (designed binder) MLPAPKNLVVSRVTEDSARLSWTAPDAAFDSFLILYIEQDHRGEAIVLTVPGSERSYDLTGLKPGTEYWVHITGVKGGYYSAPLSAIFTT: 5.62e+06

# input for lookup
Need RLU of CD71-binding FN3 domain of SEQ ID NO: 469 (designed binder) MLPAPKNLVVSRVTEDSARLSWTAPDAAFDSFFIGYLEPQPPGEAIHLYVPGSERSYDLTGLKPGTEYNVTIQGVKGGFPSLPLVATFTT , thanks.
5.4e+06

All values here come from patent US20260151494A1.
